- Tested on: Trypanosoma cruzi
- assay.details: Antitrypanosomal activity against amastigote form of Trypanosoma cruzi Y infected in human U2OS cells
- Type: functional, organism-based
measurement.type: EC50

Example entries and their recorded answers appear below.
test_smiles=O=C(N[C@@H](Cc1ccccc1)C(=O)Nc1cnoc1)OCc1ccccc1 result="> 100 µM"
test_smiles=CN(C#N)N(C)C(=O)[C@H](Cc1ccccc1)NC(=O)OCc1ccccc1 result="5.01 µM"
test_smiles=CC(C)C[C@H](NC(=O)c1cc(C(C)(C)C)nn1C)C(=O)N(C)N(C)C#N result="12.6 µM"
test_smiles=CC(C)C[C@H](NC(=O)OC(C)(C)C)C(=O)N(C)N(C)C#N result="39.8 µM"
test_smiles=N#CCNC(=O)[C@H](Cc1ccccc1)NC(=O)OCc1ccccc1 result="> 100 µM"

Give EC50 for each listed item.
1. Cc1coc(NC(=O)[C@H](Cc2ccccc2)NC(=O)OCc2ccccc2)n1
2. N#CC1(NC(=O)[C@H](Cc2ccccc2)NC(=O)OCc2ccccc2)CC1

["39.8 µM", "> 100 µM"]

* * *

- tgt: Cruzipain (Trypanosoma cruzi, UniProt P25779)
- Sequence (P25779 whole entry): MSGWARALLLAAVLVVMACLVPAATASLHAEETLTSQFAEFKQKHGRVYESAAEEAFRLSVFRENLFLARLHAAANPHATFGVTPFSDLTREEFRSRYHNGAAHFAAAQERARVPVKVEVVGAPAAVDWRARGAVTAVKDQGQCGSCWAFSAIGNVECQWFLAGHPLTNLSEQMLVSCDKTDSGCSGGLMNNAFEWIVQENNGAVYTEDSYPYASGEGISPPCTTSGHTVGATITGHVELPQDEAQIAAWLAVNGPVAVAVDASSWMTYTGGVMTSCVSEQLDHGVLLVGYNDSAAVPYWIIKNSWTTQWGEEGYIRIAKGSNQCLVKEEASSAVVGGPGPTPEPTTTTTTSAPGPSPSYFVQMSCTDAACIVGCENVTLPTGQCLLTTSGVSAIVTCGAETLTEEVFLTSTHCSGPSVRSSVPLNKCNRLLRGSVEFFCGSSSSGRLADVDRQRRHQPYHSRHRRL
- assay.details: Inhibition of recombinant Trypanosoma cruzi cruzain using Z-phe-Arg-7-amido-4-methylcoumarin as substrate by fluorometric method
Non-standard residues stand in square brackets, D forms with d. Residues, ends and D or L forms follow the SMILES beside them. *: point of attachment. Cbz = O=C(OCc1ccccc1)*; Ac3c = NC1(C(=O)O)CC1
Kindly supply the reported pKi values for the records listed here.
Answers are plain numbers, as −log10 of the molar value.

compound=CN(C#N)N(C)C(=O)[C@H](Cc1ccccc1)NC(=O)c1cc(C(C)(C)C)nn1C tgt="Cruzipain (Trypanosoma cruzi, UniProt P25779)" measurement_type=pKi recorded_number=8.80
compound=O=C(N[C@@H](Cc1ccccc1)C(=O)NCC=NO)OCc1ccccc1 tgt="Cruzipain (Trypanosoma cruzi, UniProt P25779)" measurement_type=pKi recorded_number=7.00
compound=CC(C)C[C@H](NC(=O)OC(C)(C)C)C(=O)N(C)N(C)C#N tgt="Cruzipain (Trypanosoma cruzi, UniProt P25779)" measurement_type=pKi recorded_number=8.00
compound=CCOC(=O)/C=C/CNC(=O)[C@H](Cc1ccccc1)NC(=O)OCc1ccccc1 tgt="Cruzipain (Trypanosoma cruzi, UniProt P25779)" measurement_type=pKi recorded_number=5.80
compound=CNC(=O)/C=C/C1(NC(=O)[C@H](Cc2ccccc2)NC(=O)OCc2ccccc2)CC1 tgt="Cruzipain (Trypanosoma cruzi, UniProt P25779)" measurement_type=pKi recorded_number=3.40

Please report pKi for every entry that follows.
1. CCOC(=O)/C=C\CNC(=O)[C@H](Cc1ccccc1)NC(=O)OCc1ccccc1
2. O=CCNC(=O)[C@H](Cc1ccccc1)NC(=O)OCc1ccccc1 (Cbz-Phe-Gly-aldehyde)
3. O=CC1(NC(=O)[C@H](Cc2ccccc2)NC(=O)OCc2ccccc2)CC1 (Cbz-Phe-[Ac3c]-aldehyde)
4. CCN(CC)C(=O)/C=C/C1(NC(=O)[C@H](Cc2ccccc2)NC(=O)OCc2ccccc2)CC1
5. Cc1coc(NC(=O)[C@H](Cc2ccccc2)NC(=O)OCc2ccccc2)n1
6. N#CC1(NC(=O)[C@H](Cc2ccccc2)NC(=O)OCc2ccccc2)CC1

[5.20, 8.10, 5.40, 3.70, 4.60, 5.20]

* * *

- assay.details: Cytotoxicity against human U2OS cells
- Assay type: cell-based
measurement.type: CC50

test_smiles=N#CC1(NC(=O)[C@H](Cc2ccccc2)NC(=O)OCc2ccccc2)CC1 measurement_type=CC50 result="> 100 µM"

List reported CC50 for each of these molecules:
1. CC(C)C[C@H](NC(=O)OC(C)(C)C)C(=O)N(C)N(C)C#N
2. N#CCNC(=O)[C@H](Cc1ccccc1)NC(=O)OCc1ccccc1
3. O=C(N[C@@H](Cc1ccccc1)C(=O)Nc1cnoc1)OCc1ccccc1
4. Cc1coc(NC(=O)[C@H](Cc2ccccc2)NC(=O)OCc2ccccc2)n1

50.1 µM
> 100 µM
> 100 µM
> 100 µM

Sure, the documented CC50 for CN(C#N)N(C)C(=O)[C@H](Cc1ccccc1)NC(=O)OCc1ccccc1 is 10 µM

* * *

- tgt: Cruzipain (Trypanosoma cruzi, UniProt P25779)
- assay.details: Inhibition of recombinant Trypanosoma cruzi cruzain using Z-phe-Arg-7-amido-4-methylcoumarin as substrate by fluorometric method
measurement.type: pKi
One number for each entry, as −log10 of the molar value.

Take a look at these entries with their results.
test_smiles=O=C(N[C@@H](Cc1ccccc1)C(=O)Nc1cnoc1)OCc1ccccc1 recorded_number=5.00
test_smiles=CCOC(=O)/C=C/C1(NC(=O)[C@H](Cc2ccccc2)NC(=O)OCc2ccccc2)CC1 recorded_number=3.90

Now look at this one.
Entry under test: CN(C#N)N(C)C(=O)[C@H](Cc1ccccc1)NC(=O)OCc1ccccc1 . Its pKi was 8.70
